Data credit: patent US20230049619A1

Listing: inhibition at 0.01 µM of selected compounds
biological target: sigma-1 receptor (Homo sapiens); construct: incubing Jurkat cell membranes ([…] protein per tube) with [^3H](+)-pentazocine; endogenous in cells; host or cells: Jurkat cell membranes; assay: sigma-1 receptor binding assay ([3H](+)-pentazocine displacement, Jurkat cell membranes); conditions: tested compound 10 nM, [3H](+)-pentazocine 15 nM, 37° C., 2 hours
Sequence (Q99720 whole entry): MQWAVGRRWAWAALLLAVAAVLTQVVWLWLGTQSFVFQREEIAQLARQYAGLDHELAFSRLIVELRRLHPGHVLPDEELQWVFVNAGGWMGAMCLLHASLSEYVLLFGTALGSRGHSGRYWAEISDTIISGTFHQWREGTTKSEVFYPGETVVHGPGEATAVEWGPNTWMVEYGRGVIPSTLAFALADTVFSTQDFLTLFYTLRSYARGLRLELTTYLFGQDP
Where a name gives a salt, the structure may show the parent alone.
ASSAY METRIC: inhibition at 0.01 µM (%)

- O=c1c(-c2ccccc2)ccnn1CC1CCN(CC2CCCCC2)CC1 [cpd 13, hydrochloride]: 59.3
- O=c1c(-c2ccccc2)ccnn1CC1CCN(CCc2ccccc2)CC1 [cpd 10, hydrochloride]: 29.2
- O=c1c(-c2ccccc2)ccnn1C1CCN(Cc2ccccc2)CC1 [cpd 1, hydrochloride]: 59.9
- O=c1c(-c2ccccc2)cncn1CC1CCN(Cc2ccccc2)CC1: 75.7
- O=c1c(-c2ccccc2)ccnn1CC1CCN(CCO)CC1 [cpd 20, hydrochloride]: 18.9
- O=c1cc(-c2ccccc2)cnn1C1CCN(Cc2ccccc2)CC1 [cpd 2, hydrochloride]: 86
- O=c1c(-c2ccccc2)ccnn1CC1CCN(CC(O)c2ccccc2)CC1 (stereo not shown) [cpd 25, hydrochloride]: 15.3
- Cl.O=c1c(-c2ccccc2)cncn1C1CCN(Cc2ccccc2)CC1 [cpd 43, hydrochloride]: 86
- O=c1c(-c2ccccc2)ccnn1C1CCCN(Cc2ccccc2)CC1 (stereo not shown) [cpd 6, hydrochloride]: 81.4
- CCCN1CCC(Cn2nccc(-c3ccccc3)c2=O)CC1 [cpd 11, hydrochloride]: 3.9
- O=c1c(-c2ccccc2)ccnn1CCC1CCN(Cc2ccccc2)CC1 [cpd 26, hydrochloride]: 80.9
- O=c1c(-c2ccccc2)ccnn1CC1CCN(Cc2ccc(O)cc2)CC1 [cpd 18, hydrochloride]: 16.7
- O=c1c(CCc2ccccc2)ccnn1C1CCN(Cc2ccccc2)CC1 [cpd 37, hydrochloride]: 90
- O=c1c(N2CCOCC2)ccnn1CC1CCN(Cc2ccccc2)CC1 [cpd 40, hydrochloride]: 8.2
- O=c1c(N2CCc3ccccc3C2)ccnn1CC1CCN(Cc2ccccc2)CC1 [cpd 42, hydrochloride]: 25.4
- O=C(CN1CCC(Cn2nccc(-c3ccccc3)c2=O)CC1)c1ccc(F)cc1 [cpd 24, hydrochloride]: 6.2
- O=c1c(-c2ccccc2)ccnn1CC1(O)CCN(Cc2ccccc2)CC1 [cpd 29, hydrochloride]: 10.6
- O=c1cc(-c2ccccc2)cnn1CC1CCN(Cc2ccccc2)CC1 [cpd 8, hydrochloride]: 31.5
- O=c1c(-c2ccccc2)cccn1CC1CCN(Cc2ccccc2)CC1 [cpd 46, hydrochloride]: 75.6
- O=c1c(-c2ccccc2Cl)ccnn1CC1CCN(Cc2ccccc2)CC1 [cpd 33, hydrochloride]: 51.2
- O=c1c(-c2ccccc2)cccn1C1CCN(Cc2ccccc2)CC1 [cpd 44, hydrochloride]: 29.6
- O=c1c(-c2ccccc2)ccnn1C1CCN(CC2CC2)CC1 [cpd 4, hydrochloride]: 13.5
